Reported values of Clone size (percent repertoire), IFNγ+ sorted T cells after peptide stimulation for individual entries
Tgt: T1, OX1149-190 (human)
T1 peptide: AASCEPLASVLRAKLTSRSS
Assay: cell-based or functional assay

| Binder | Endpoint Value |
| --- | --- |
| OX1149 Peptide 190 clone 5 TCR (TCR, V domains shown) V domain 1: DQQVKQNSPSLSVQEGRISILNCDYTNSMFDYFLWYKKYPAEGPTFLISISSIKDKNEDGRFTVFLNKSAKHLSLHIVPSQPGDSAVYFCAATRAGGTSYGKLTFGQGTILTVHP V domain 2: SQTIHQWPATLVQPVGSPLSLECTVEGTSNPNLYWYRQAAGRGLQLLFYSVGIGQISSEVPQNLSASRPQDRQFILSSKKLLLSDSGFYLCAWSVLAGVSQYFGPGTRLLVLE | 4.8 % of repertoire |

Let us examine a further case.
Which Clone size (percent repertoire), IFNγ+ sorted T cells after peptide stimulation value is on record for OX1149 Peptide 190 clone 2 TCR (TCR, V domains shown) V domain 1: SQQGEEDPQALSIQEGENATMNCSYKTSINNLQWYRQNSGRGLVHLILIRSNEREKHSGRLRVTLDTSKKSSSLLITASRAADTASYFCAAMYSGGGADGLTFGKGTHLIIQP V domain 2: EPEVTQTPSHQVTQMGQEVILRCVPISNHLYFYWYRQILGQKVEFLVSFYNNEISEKSEIFDDQFSVERPDGSNFTLKIRSTKLEDSAMYFCASSTQGQAYEQYFGPGTRLTVTE ? 17.3 % of repertoire
